Target: Mu opioid receptor (MOR) (Homo sapiens, UniProt P35372)
Sequence (P35372 whole entry): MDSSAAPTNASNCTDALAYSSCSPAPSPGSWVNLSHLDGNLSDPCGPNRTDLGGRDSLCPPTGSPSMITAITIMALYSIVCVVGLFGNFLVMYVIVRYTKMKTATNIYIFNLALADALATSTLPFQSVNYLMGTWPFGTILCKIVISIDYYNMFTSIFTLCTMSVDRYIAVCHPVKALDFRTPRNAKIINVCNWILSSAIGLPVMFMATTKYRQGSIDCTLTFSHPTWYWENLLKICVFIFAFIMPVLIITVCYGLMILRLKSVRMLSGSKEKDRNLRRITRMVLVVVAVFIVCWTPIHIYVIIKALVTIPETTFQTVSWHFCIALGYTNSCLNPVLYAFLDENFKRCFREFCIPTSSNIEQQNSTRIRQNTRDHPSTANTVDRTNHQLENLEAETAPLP
Test: cell-based
Format: cell-based
Square brackets hold non-standard residues; d marks the D form. Peptide text beside a SMILES is read from it. Phe(4-Cl) = N[C@@H](Cc1ccc(Cl)cc1)C(=O)O; Aoc = NCCCCCCCC(=O)O; Sar = CNCC(=O)O
Quantity measured: EC50

# Molecule, Quantity measured, Test value
data = [
    ("CC(C)C[C@H](NC(=O)[C@H](Cc1ccccc1)NC(=O)CN(C)C(=O)[C@@H](N)Cc1ccc(O)cc1)C(=O)N[C@@H](CCCNC(=N)N)C(=O)N[C@@H](CCCNC(=N)N)C(N)=O [SEQ ID NO. 2, NH2-Tyr-Sar-Phe-Leu-Arg-Arg-NH2] (H-Y[Sar]FLRR-NH2)", "EC50", "6.7 µM"),
    ("CC[C@H](C)[C@H](NC(=O)[C@@H](CCCNC(=N)N)NC(=O)[C@H](CCCNC(=N)N)NC(=O)[C@H](CC(C)C)NC(=O)[C@H](Cc1ccc(Cl)cc1)NC(=O)CN(C)C(=O)[C@@H](N)Cc1ccc(O)cc1)C(=O)N[C@@H](CCCNC(=N)N)C(N)=O [SEQ ID NO. 20]", "EC50", "> 10 µM"),
    ("CC(C)C[C@H](NC(=O)[C@H](Cc1ccc(Cl)cc1)NC(=O)CN(C)C(=O)[C@@H](N)Cc1ccc(O)cc1)C(=O)N[C@@H](CCCNC(=N)N)C(=O)N[C@H](CCCNC(=N)N)C(=O)NCCCCCCCC(=O)O [SEQ ID NO. 28] (H-Y[Sar][Phe(4-Cl)]LR[dR][Aoc]-OH)", "EC50", "> 10 µM"),
]

====

Molecular target: bovine pancreatic trypsin (Bos taurus)
Construct: from tissue; host or cells: bovine pancreas
Sequence (P00760 24-246): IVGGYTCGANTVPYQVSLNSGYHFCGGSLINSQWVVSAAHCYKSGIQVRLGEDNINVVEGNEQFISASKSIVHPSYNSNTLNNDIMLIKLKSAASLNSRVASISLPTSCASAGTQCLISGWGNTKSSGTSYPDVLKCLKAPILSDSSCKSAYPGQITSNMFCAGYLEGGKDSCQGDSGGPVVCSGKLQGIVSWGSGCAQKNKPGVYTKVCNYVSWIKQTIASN
Assay: Stability in bovine trypsin
Assay type: in vitro ADME
Details: bovine pancreatic trypsin solution; bovine pancreatic trypsin 2.5 μg/mL, NH4HCO3 buffer pH 8-8.5, 37° C., 100 μM peptide
Square brackets hold non-standard residues; d marks the D form. Peptide text beside a SMILES is read from it. Phe(4-Cl) = N[C@@H](Cc1ccc(Cl)cc1)C(=O)O; Phe(4-F) = N[C@@H](Cc1ccc(F)cc1)C(=O)O; NMeR = CN[C@@H](CCCNC(=N)N)C(=O)O; Sar = CNCC(=O)O
We use 10 min as the dividing line for half-life at 100 µM: on or above the line is true (1), below is false (0).

# Molecule, Class label
measured = [
    ("CC(C)C[C@H](NC(=O)[C@H](Cc1ccc(F)cc1)NC(=O)CN(C)C(=O)[C@@H](N)Cc1ccc(O)cc1)C(=O)N[C@@H](CCCNC(=N)N)C(=O)N[C@H](CCCNC(=N)N)C(N)=O [SEQ ID NO. 12, NH2-Tyr-Sar-(4-F)Phe-Leu-Arg-DArg-NH2] (H-Y[Sar][Phe(4-F)]LR[dR]-NH2)", "true (1)"),
    ("CC(C)C[C@@H](NC(=O)[C@@H](Cc1ccccc1)NC(=O)[C@H](N)Cc1ccccc1)C(=O)N[C@H](CCCCN)C(=O)N1CCC(N)(C(=O)O)CC1 [SEQ ID NO. 35, DPhe-DPhe-DLeu-DLys-Cap-CO2H, reference compound]", "true (1)"),
    ("CC(C)C[C@H](NC(=O)[C@H](Cc1ccc(Cl)cc1)NC(=O)CN(C)C(=O)[C@@H](N)Cc1ccc(O)cc1)C(=O)N[C@@H](CCCNC(=N)N)C(=O)N[C@H](CCCNC(=N)N)C(N)=O [SEQ ID NO. 11, NH2-Tyr-Sar-(4-Cl)Phe-Leu-Arg-DArg-NH2] (H-Y[Sar][Phe(4-Cl)]LR[dR]-NH2)", "true (1)"),
    ("CC(C)C[C@H](NC(=O)[C@H](Cc1ccc(F)cc1)NC(=O)CN(C)C(=O)[C@@H](N)Cc1ccc(O)cc1)C(=O)N(C)[C@@H](CCCNC(=N)N)C(=O)N[C@H](CCCNC(=N)N)C(N)=O [SEQ ID NO. 14, NH2-Tyr-Sar-(4-F)Phe-Leu-NMA-DArg-NH2] (H-Y[Sar][Phe(4-F)]L[NMeR][dR]-NH2)", "true (1)"),
    ("CC(C)C[C@H](NC(=O)[C@H](Cc1ccccc1)NC(=O)CN(C)C(=O)[C@@H](N)Cc1ccc(O)cc1)C(=O)N[C@@H](CCCNC(=N)N)C(=O)N[C@@H](CCCNC(=N)N)C(N)=O [SEQ ID NO. 2, NH2-Tyr-Sar-Phe-Leu-Arg-Arg-NH2] (H-Y[Sar]FLRR-NH2)", "false (0)"),
]
